Give selectivity ratio for every item shown.
# protocol: Selectivity ratio of MIC for cytotoxicity against human HL-60 cells to MIC for antitrypanosomal activity against bloodstream form of Trypanosoma brucei clone 427-221a
# Format: toxicity, cell-based
Answers are plain numbers.

[[record]]
structure_smiles = "CCCCCCCCCC(=O)OC[C@]1(O)O[C@H]([C@H]2C[C@H](C)[C@H]([C@]3(CO)CC[C@H]([C@]4(C)CC[C@]5(C[C@H](O)[C@@H](C)[C@@H]([C@@H](C)[C@@H](OC)[C@H](C)C(=O)O)O5)O4)O3)O2)[C@@H](C)C[C@H]1C"
observable = "selectivity ratio"
assay_value = 100

[[record]]
structure_smiles = "CCCNC(=O)OC[C@]1(O)O[C@H]([C@H]2C[C@H](C)[C@H]([C@]3(CO)CC[C@H]([C@]4(C)CC[C@]5(C[C@H](O)[C@@H](C)[C@@H]([C@@H](C)[C@@H](OC)[C@H](C)C(=O)O)O5)O4)O3)O2)[C@@H](C)C[C@H]1C"
observable = "selectivity ratio"
assay_value = 10

[[record]]
structure_smiles = "CCCCNC(=O)OC[C@]1(O)O[C@H]([C@H]2C[C@H](C)[C@H]([C@]3(CO)CC[C@H]([C@]4(C)CC[C@]5(C[C@H](O)[C@@H](C)[C@@H]([C@@H](C)[C@@H](OC)[C@H](C)C(=O)O)O5)O4)O3)O2)[C@@H](C)C[C@H]1C"
observable = "selectivity ratio"
assay_value = 19


Hi team, please reply with selectivity ratio for each item in this list.
1. CCNC(=O)OC[C@]1(O)O[C@H]([C@H]2C[C@H](C)[C@H]([C@]3(CO)CC[C@H]([C@]4(C)CC[C@]5(C[C@H](O)[C@@H](C)[C@@H]([C@@H](C)[C@@H](OC)[C@H](C)C(=O)O)O5)O4)O3)O2)[C@@H](C)C[C@H]1C
2. CO[C@H]([C@H](C)[C@H]1O[C@@]2(CC[C@@](C)([C@H]3CC[C@@](CO)([C@@H]4O[C@@H]([C@H]5O[C@@](O)(COC(=O)NC(=O)CCl)[C@H](C)C[C@@H]5C)C[C@@H]4C)O3)O2)C[C@H](O)[C@H]1C)[C@H](C)C(=O)O

Completion:
[10, 100]

----------
# Test system: HL-60
# protocol: Cytotoxicity against human HL-60 cells assessed as reduction in cell viability measured after 24 hrs by resazurin dye based assay
# Assay type: toxicity
# condition details: hl-60, 24 h
Give MIC for every item shown.
Answers are plain numbers, in µM.

Guide cases for MIC, answers given:
[[record]]
structure_smiles = "CO[C@H]([C@H](C)[C@H]1O[C@@]2(CC[C@@](C)([C@H]3CC[C@@](CO)([C@@H]4O[C@@H]([C@H]5O[C@@](O)(COC(C)=O)[C@H](C)C[C@@H]5C)C[C@@H]4C)O3)O2)C[C@H](O)[C@H]1C)[C@H](C)C(=O)O"
observable = "MIC"
assay_value = 10

[[record]]
structure_smiles = "CCCCCCCCCC(=O)OC[C@]1(O)O[C@H]([C@H]2C[C@H](C)[C@H]([C@]3(CO)CC[C@H]([C@]4(C)CC[C@]5(C[C@H](O)[C@@H](C)[C@@H]([C@@H](C)[C@@H](OC)[C@H](C)C(=O)O)O5)O4)O3)O2)[C@@H](C)C[C@H]1C"
observable = "MIC"
assay_value = 100

[[record]]
structure_smiles = "CO[C@H]([C@H](C)[C@H]1O[C@@]2(CC[C@@](C)([C@H]3CC[C@@](CO)([C@@H]4O[C@@H]([C@H]5O[C@@](O)(COC(=O)NCCCCl)[C@H](C)C[C@@H]5C)C[C@@H]4C)O3)O2)C[C@H](O)[C@H]1C)[C@H](C)C(=O)O"
observable = "MIC"
assay_value = 100

[[record]]
structure_smiles = "CO[C@H]([C@H](C)[C@H]1O[C@@]2(CC[C@@](C)([C@H]3CC[C@@](CO)([C@@H]4O[C@@H]([C@H]5O[C@@](O)(COC(=O)NCc6ccccc6)[C@H](C)C[C@@H]5C)C[C@@H]4C)O3)O2)C[C@H](O)[C@H]1C)[C@H](C)C(=O)O"
observable = "MIC"
assay_value = 100

[[record]]
structure_smiles = "CO[C@H]([C@H](C)[C@H]1O[C@@]2(CC[C@@](C)([C@H]3CC[C@@](CO)([C@@H]4O[C@@H]([C@H]5O[C@@](O)(COC(=O)NC(=O)CCl)[C@H](C)C[C@@H]5C)C[C@@H]4C)O3)O2)C[C@H](O)[C@H]1C)[C@H](C)C(=O)O"
observable = "MIC"
assay_value = 10


Prompt: Quick one: MIC for CO[C@H]([C@H](C)[C@H]1O[C@@]2(CC[C@@](C)([C@H]3CC[C@@](CO)([C@@H]4O[C@@H]([C@H]5O[C@@](O)(COC(=O)c6ccccc6)[C@H](C)C[C@@H]5C)C[C@@H]4C)O3)O2)C[C@H](O)[C@H]1C)[C@H](C)C(=O)O ?
Completion: 100

----------
# System: Staphylococcus epidermidis
# protocol: Antibacterial activity against Staphylococcus epidermidis 840/19
# Assay type: functional
Give MIC for every item shown.
Numbers only, in µg/mL.

Guide cases for MIC, answers given:
[[record]]
structure_smiles = "CO[C@H]([C@H](C)[C@H]1O[C@@]2(CC[C@@](C)([C@H]3CC[C@@](CO)([C@@H]4O[C@@H]([C@H]5O[C@@](O)(COC(=O)NCCCl)[C@H](C)C[C@@H]5C)C[C@@H]4C)O3)O2)C[C@H](O)[C@H]1C)[C@H](C)C(=O)O"
target_entity = "Staphylococcus epidermidis"
assay_value = 4

[[record]]
structure_smiles = "CO[C@H]([C@H](C)[C@H]1O[C@@]2(CC[C@@](C)([C@H]3CC[C@@](CO)([C@@H]4O[C@@H]([C@H]5O[C@@](O)(COC(=O)Nc6ccccc6)[C@H](C)C[C@@H]5C)C[C@@H]4C)O3)O2)C[C@H](O)[C@H]1C)[C@H](C)C(=O)O"
target_entity = "Staphylococcus epidermidis"
assay_value = 0.5

[[record]]
structure_smiles = "CCCCCCCCCC(=O)OC[C@]1(O)O[C@H]([C@H]2C[C@H](C)[C@H]([C@]3(CO)CC[C@H]([C@]4(C)CC[C@]5(C[C@H](O)[C@@H](C)[C@@H]([C@@H](C)[C@@H](OC)[C@H](C)C(=O)O)O5)O4)O3)O2)[C@@H](C)C[C@H]1C"
target_entity = "Staphylococcus epidermidis"
assay_value = 2

[[record]]
structure_smiles = "CO[C@H]([C@H](C)[C@H]1O[C@@]2(CC[C@@](C)([C@H]3CC[C@@](CO)([C@@H]4O[C@@H]([C@H]5O[C@@](O)(COC(C)=O)[C@H](C)C[C@@H]5C)C[C@@H]4C)O3)O2)C[C@H](O)[C@H]1C)[C@H](C)C(=O)O"
target_entity = "Staphylococcus epidermidis"
assay_value = 2

[[record]]
structure_smiles = "CO[C@H]([C@H](C)[C@H]1O[C@@]2(CC[C@@](C)([C@H]3CC[C@@](CO)([C@@H]4O[C@@H]([C@H]5O[C@@](O)(COC(=O)c6ccccc6)[C@H](C)C[C@@H]5C)C[C@@H]4C)O3)O2)C[C@H](O)[C@H]1C)[C@H](C)C(=O)O"
target_entity = "Staphylococcus epidermidis"
assay_value = 2


Pending compound:
Prompt: Quick one: MIC for CO[C@H]([C@H](C)[C@H]1O[C@@]2(CC[C@@](C)([C@H]3CC[C@@](CO)([C@@H]4O[C@@H]([C@H]5O[C@@](O)(COC(=O)NCCCCl)[C@H](C)C[C@@H]5C)C[C@@H]4C)O3)O2)C[C@H](O)[C@H]1C)[C@H](C)C(=O)O ?
Completion: 8

----------
Give MIC for every item shown.
# Tested on: Staphylococcus epidermidis
# protocol: Antibacterial activity against Staphylococcus epidermidis 840/19
# Assay type: functional

[[record]]
structure_smiles = "CCNC(=O)OC[C@]1(O)O[C@H]([C@H]2C[C@H](C)[C@H]([C@]3(CO)CC[C@H]([C@]4(C)CC[C@]5(C[C@H](O)[C@@H](C)[C@@H]([C@@H](C)[C@@H](OC)[C@H](C)C(=O)O)O5)O4)O3)O2)[C@@H](C)C[C@H]1C"
assay_value = "8 µg/mL"


Pending compound:
Prompt: Quick one: MIC for CO[C@H]([C@H](C)[C@H]1O[C@@]2(CC[C@@](C)([C@H]3CC[C@@](CO)([C@@H]4O[C@@H]([C@H]5O[C@@](O)(COC(=O)NCc6ccccc6)[C@H](C)C[C@@H]5C)C[C@@H]4C)O3)O2)C[C@H](O)[C@H]1C)[C@H](C)C(=O)O ?
Completion: 2 µg/mL

----------
# protocol: Selectivity ratio of MIC for cytotoxicity against human HL-60 cells to MIC for antitrypanosomal activity against bloodstream form of Trypanosoma brucei clone 427-221a
# Type: toxicity, cell-based
observable: selectivity ratio

Guide cases for selectivity ratio, answers given:
[[record]]
molecule = "CO[C@H]([C@H](C)[C@H]1O[C@@]2(CC[C@@](C)([C@H]3CC[C@@](CO)([C@@H]4O[C@@H]([C@H]5O[C@@](O)(COC(=O)NCCCCl)[C@H](C)C[C@@H]5C)C[C@@H]4C)O3)O2)C[C@H](O)[C@H]1C)[C@H](C)C(=O)O"
observable = "selectivity ratio"
assay_value = 10

[[record]]
molecule = "CO[C@H]([C@H](C)[C@H]1O[C@@]2(CC[C@@](C)([C@H]3CC[C@@](CO)([C@@H]4O[C@@H]([C@H]5O[C@@](O)(COC(=O)Nc6ccccc6)[C@H](C)C[C@@H]5C)C[C@@H]4C)O3)O2)C[C@H](O)[C@H]1C)[C@H](C)C(=O)O"
observable = "selectivity ratio"
assay_value = 100

[[record]]
molecule = "CO[C@H]([C@H](C)[C@H]1O[C@@]2(CC[C@@](C)([C@H]3CC[C@@](CO)([C@@H]4O[C@@H]([C@H]5O[C@@](O)(COC(=O)NCCCl)[C@H](C)C[C@@H]5C)C[C@@H]4C)O3)O2)C[C@H](O)[C@H]1C)[C@H](C)C(=O)O"
observable = "selectivity ratio"
assay_value = 10

[[record]]
molecule = "Cc1ccc(C(=O)Nc2ccc(S(=O)(=O)O)c3cc(S(=O)(=O)O)cc(S(=O)(=O)O)c23)cc1NC(=O)c1cccc(NC(=O)Nc2cccc(C(=O)Nc3cc(C(=O)Nc4ccc(S(=O)(=O)O)c5cc(S(=O)(=O)O)cc(S(=O)(=O)O)c45)ccc3C)c2)c1 [SURAMIN]"
observable = "selectivity ratio"
assay_value = "> 100"

[[record]]
molecule = "CO[C@H]([C@H](C)[C@H]1O[C@@]2(CC[C@@](C)([C@H]3CC[C@@](CO)([C@@H]4O[C@@H]([C@H]5O[C@@](O)(COC(C)=O)[C@H](C)C[C@@H]5C)C[C@@H]4C)O3)O2)C[C@H](O)[C@H]1C)[C@H](C)C(=O)O"
observable = "selectivity ratio"
assay_value = 10

[[record]]
molecule = "CO[C@H]([C@H](C)[C@H]1O[C@@]2(CC[C@@](C)([C@H]3CC[C@@](CO)([C@@H]4O[C@@H]([C@H]5O[C@@](O)(COC(=O)c6ccccc6)[C@H](C)C[C@@H]5C)C[C@@H]4C)O3)O2)C[C@H](O)[C@H]1C)[C@H](C)C(=O)O"
observable = "selectivity ratio"
assay_value = 10


Prompt: Quick one: selectivity ratio for CO[C@H]([C@H](C)[C@H]1O[C@@]2(CC[C@@](C)([C@H]3CC[C@@](CO)([C@@H]4O[C@@H]([C@H]5O[C@@](O)(COC(=O)NCc6ccccc6)[C@H](C)C[C@@H]5C)C[C@@H]4C)O3)O2)C[C@H](O)[C@H]1C)[C@H](C)C(=O)O ?
Completion: 100
